targetUnderTest: Fructose-1,6-bisphosphatase 1 (Homo sapiens) (UniProt P09467)
Sequence (P09467 whole entry): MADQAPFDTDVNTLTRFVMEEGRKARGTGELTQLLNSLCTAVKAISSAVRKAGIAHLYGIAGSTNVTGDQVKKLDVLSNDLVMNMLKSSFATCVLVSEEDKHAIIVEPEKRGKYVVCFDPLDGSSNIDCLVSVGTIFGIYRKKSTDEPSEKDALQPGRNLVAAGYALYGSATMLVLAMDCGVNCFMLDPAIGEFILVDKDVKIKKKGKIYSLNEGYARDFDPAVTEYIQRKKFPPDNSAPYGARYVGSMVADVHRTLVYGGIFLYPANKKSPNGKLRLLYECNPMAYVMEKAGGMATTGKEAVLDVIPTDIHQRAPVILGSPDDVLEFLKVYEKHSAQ
protocol: Inhibition of wild-type full-length human liver FBPase expressed in Escherichia coli BL21 (DE3) using FBP as substrate at 10 uM by malachite green dye-based assay
Assay type: single protein
Documented inhibition across a set of compounds

{"itemSmiles": "Clc1ccc(SSc2ccc(Cl)cc2)cc1", "inhibition [%]": 18}
{"itemSmiles": "COc1ccc2nc(SSc3nc4ccc(OC)cc4s3)sc2c1", "inhibition [%]": 44.7}
{"itemSmiles": "CN(C(=S)SSC(=S)N(C)c1ccccc1)c1ccccc1", "inhibition [%]": 35.7}
{"itemSmiles": "CCCN(CCC)C(=S)SSC(=S)N(CCC)CCC", "inhibition [%]": 13.6}

---

targetUnderTest: Fructose-1,6-bisphosphatase 1 (Homo sapiens) (UniProt P09467)
protocol: Inhibition of wild-type full-length human liver FBPase expressed in Escherichia coli BL21 (DE3) using FBP as substrate at 10 uM by malachite green dye-based assay
Format: single protein
The following compounds are shown together with reported inhibition values.

{"compound": "S=C(SSC(=S)n1c2ccccc2c2ccccc21)n1c2ccccc2c2ccccc21", "inhibition (%)": 39.7}
{"compound": "S=C(SSC(=S)N1CC2CCCCC2C1)N1CC2CCCCC2C1 (stereo unspecified)", "inhibition (%)": 37.2}
{"compound": "CCN(CC)C(=S)SCSC(=S)N(CC)CC", "inhibition (%)": 12.4}
{"compound": "CCN(CC)C(=O)SSC(=O)N(CC)CC", "inhibition (%)": 2.59}
{"compound": "S=C(SSC(=S)N1CCC1)N1CCC1", "inhibition (%)": 28.5}
{"compound": "S=C(SSC(=S)n1ncc2ccccc21)n1ncc2ccccc21", "inhibition (%)": 47.6}
{"compound": "Cc1cccn1C(=S)SSC(=S)n1cccc1C", "inhibition (%)": 29.4}
{"compound": "c1csc(SSc2cccs2)c1", "inhibition (%)": 50.6}
{"compound": "CCN(CC)C(=S)CSC(=S)N(CC)CC", "inhibition (%)": 21.4}
{"compound": "S=C(SSC(=S)N1CCCc2ccccc21)N1CCCc2ccccc21", "inhibition (%)": 9.87}
{"compound": "CCN(CC)C(=O)CSC(=S)N(CC)CC", "inhibition (%)": 3.22}
{"compound": "CN(C(=S)SSC(=S)N(C)c1ccc(-c2ccccc2)cc1)c1ccc(-c2ccccc2)cc1", "inhibition (%)": 32.4}
{"compound": "O=[N+]([O-])c1ccc2nc(SSc3nc4ccc([N+](=O)[O-])cc4s3)sc2c1", "inhibition (%)": 18.4}
{"compound": "S=C(SSC(=S)N1CCc2ccccc2C1)N1CCc2ccccc2C1", "inhibition (%)": 38.4}
{"compound": "CN1CCN(C(=S)SSC(=S)N2CCN(C)CC2)CC1", "inhibition (%)": 26.2}
{"compound": "S=C(SSC(=S)N1CCc2ccccc21)N1CCc2ccccc21", "inhibition (%)": 39.9}
{"compound": "c1ccc(SSc2ccccc2)cc1", "inhibition (%)": 10.4}
{"compound": "CC(C)N(C(=S)SSC(=S)N(C(C)C)C(C)C)C(C)C", "inhibition (%)": 47.8}
{"compound": "CN(Cc1ccccc1)C(=S)SSC(=S)N(C)Cc1ccccc1", "inhibition (%)": 3.09}
{"compound": "c1csc(SSC2CCCC2)n1", "inhibition (%)": 34.3}
{"compound": "O=C(O)C1CCN(C(=S)SSC(=S)N2CCC(C(=O)O)CC2)CC1", "inhibition (%)": 47.6}
{"compound": "C[C@@H]1CN(C(=S)SSC(=S)N2C[C@@H](C)O[C@@H](C)C2)C[C@H](C)O1", "inhibition (%)": 37.7}
{"compound": "Cn1ccnc1SSc1nccn1C", "inhibition (%)": 9.65}
{"compound": "CCN(CC)C(=S)SC(=S)N(CC)CC", "inhibition (%)": 18}
{"compound": "C1CCC(SSC2CCCCC2)CC1", "inhibition (%)": 12.4}
{"compound": "S=C(SSC(=S)N1CCOCC1)N1CCOCC1", "inhibition (%)": 26.1}
